- System: IGROV-1
- Method notes: NCI tumour cell line growth inhibition, 48 h
Activity calls are given as the source filed them. Rule as the data show it: active = GI50 up to about 1.1 µM and inactive = higher.
Test readout: GI50

Example entries and their recorded answers appear below.
{"columns": ["Molecule", "Subject of test", "GI50"],
 "data": [
  ["CC(=O)Nc1ccc(COC(O)CN2CCCCC2)cc1[N+](=O)[O-] (stereo not drawn)", "IGROV-1", "> 100 µM (inactive)"],
  ["O=C(O)CCc1ccc(-c2ccccc2)[nH]1", "IGROV-1", "> 100 µM (inactive)"],
  ["Cc1cc(N(CCC#N)CCC#N)ccc1/C=C(\\NC(=O)/C=C/c1ccccc1)NC(=O)Nc1ccccc1C", "IGROV-1", "68.4 µM (inactive)"],
  ["C[C@@H]1[C@@H](c2ccccc2)O[B-](c2ccccc2)(c2ccccc2)N1C", "IGROV-1", "69 µM (inactive)"],
  ["N/N=C(\\CC1OC(=O)c2ccccc21)c1ccco1 (stereo not drawn)", "IGROV-1", "> 100 µM (inactive)"]
]}

Value (GI50, IGROV-1) for record COc1ccc2c(c1OC)C(=O)O[C@@H]2[C@H]1c2cc3c(cc2CCN1C)OCO3 = > 100 µM (inactive)

Value (GI50, IGROV-1) for record Oc1nc2c(c(-c3ccc(F)cc3)n1)COC/C2=C\c1ccc(F)cc1 = > 100 µM (inactive)
